src = the RNAGym collection of RNA variant scans (doi:10.1093/molbev/msab373)

B1: Azoarcus group I ribozyme (parent)
chain: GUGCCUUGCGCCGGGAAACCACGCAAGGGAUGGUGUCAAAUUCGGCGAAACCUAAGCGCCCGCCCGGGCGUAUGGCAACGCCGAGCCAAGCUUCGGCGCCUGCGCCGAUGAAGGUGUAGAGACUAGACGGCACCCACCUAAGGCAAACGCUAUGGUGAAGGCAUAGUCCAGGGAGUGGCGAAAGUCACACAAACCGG

Variants of: B1
Test: reverse-splicing fitness (ratio to wild type); higher = more active; in vitro selection; Mg2+ level not given
Readout: reverse-splicing fitness
One number for each entry.

>>> number("C82G A145U C150G C169G")
0.00774

Take each entry in turn and give its reverse-splicing fitness.
1. C82A A111C C150G C169A U176C
2. A111U A120U C150U C169U U176G
3. C82G A120C A145G C150A U176G
4. C82G A111G A145C C150A C169G U176C
5. C82A A111C A145U C150U U176G
6. C82U A111C A120G C150U C169U U176C
7. C82A A145C C150G
8. A111U C150A C169U U176A

[reply]
1. 0.0102
2. 0.00287
3. 0.0102
4. 0.0122
5. 0.0141
6. 0.014
7. 0.0739
8. 0.0201

Take each entry in turn and give its reverse-splicing fitness.
1. A111U A120C C169U U176G
2. C82A A120G A145G C150G C169G
3. C82G A111C A145C C150G
4. C82G A120G A145G C150G C169A U176G
5. A111U A120G A145U C150G C169U U176C
6. C82U A111G A120G A145C C150G U176G
7. A120U A145C C150A C169G
8. C82U A111G C150G C169G U176A

[reply]
[0.00626, 0.00916, 0.0271, 0.0077, 0.0151, 0.00261, 0.0132, 0.0075]

Take each entry in turn and give its reverse-splicing fitness.
1. A111U A145U C169A
2. C82A A111U A120C A145G C169G U176A
3. C82G A111G A120G A145C C150A U176A
4. C82G A111C A120G A145U C150A C169G
5. C82A A120C A145U C169A U176C

[reply]
0.0323
0.0259
0.0127
0.00764
0.0124
